tested on: BT-474; experiment: drug sensitivity score (DSS), CellTiter-Blue viability (DSS (AUC-based score)); higher = stronger viability inhibition; extreme values may be limits of the assay; details: incubation time: 72 h
Some molecules, each annotated with its measured drug sensitivity score.
Output: the number by itself.

- cpd_smiles: "CN1CCN(CCOc2cc(OC3CCOCC3)c3c(Nc4c(Cl)ccc5c4OCO5)ncnc3c2)CC1"
  drug sensitivity score: 5.44
- cpd_smiles: "Cn1c(=O)n(-c2ccc(C(C)(C)C#N)cc2)c2c3cc(-c4cnc5ccccc5c4)ccc3ncc21"
  drug sensitivity score: 12
- cpd_smiles: "O=C(O)CCCc1ccc(N(CCCl)CCCl)cc1"
  drug sensitivity score: 0
- cpd_smiles: "CN(C)C[C@@H]1CCn2cc(c3ccccc32)C2=C(C(=O)NC2=O)c2cn(c3ccccc23)CCO1"
  drug sensitivity score: 6.23

Here is the next item to consider.
Give the reported drug sensitivity score for `COc1ccc(-c2ccc3c(N4CCOC[C@@H]4C)nc(N4CCOC[C@@H]4C)nc3n2)cc1CO` (system: BT-474).
20

---

test system: MDA-MB-453; experiment: normalised response (% of control), CellTiter-Glo; higher = more viable cells (100 = DMSO, 0 = benzethonium chloride kill control); conditions: incubation time: 72 h
measured_endpoint: normalised response

- compound: "NS(=O)(=O)OC[C@@H]1C[C@@H](n2ccc3c(N[C@H]4CCc5ccccc54)ncnc32)C[C@@H]1O [Pevonedistat] (10 nM)"
  normalised response: "100%"
- compound: "CCCCCCCCc1ccc(CCC(N)(CO)CO)cc1 [Fingolimod] (10 nM)"
  normalised response: "105%"
- compound: "CO[C@H]1C[C@@H]2CC[C@@H](C)[C@@](O)(O2)C(=O)C(=O)N2CCCC[C@H]2C(=O)O[C@H]([C@H](C)C[C@@H]2CC[C@@H](OCCO)[C@H](OC)C2)CC(=O)[C@H](C)/C=C(\\C)[C@@H](O)[C@@H](OC)C(=O)[C@H](C)C[C@H](C)/C=C/C=C/C=C/1C [Everolimus] (0.1 nM)"
  normalised response: "95.8%"
- compound: "c1ccc([C@H]2CN3CCSC3=N2)cc1 [Levamisole] (10 nM)"
  normalised response: "117%"
- compound: "CC[C@]1(O)C[C@H]2CN(CCc3c([nH]c4ccccc34)[C@@](C(=O)OC)(c3cc4c(cc3OC)N(C=O)[C@H]3[C@@](O)(C(=O)OC)[C@H](OC(C)=O)[C@]5(CC)C=CCN6CC[C@]43[C@@H]65)C2)C1 [Vincristine] (1 nM)"
  normalised response: "104%"
- compound: "CC(C)c1c(C(=O)Nc2ccccc2)c(-c2ccccc2)c(-c2ccc(F)cc2)n1CC[C@@H](O)C[C@@H](O)CC(=O)O [Atorvastatin] (1 nM)"
  normalised response: "107%"

Here is the next item to consider.
Entry CC(C)(C#N)c1cc(Cn2cncn2)cc(C(C)(C)C#N)c1 [Anastrozole] (1 nM) has what normalised response?
112%

---

test system: DU-4475; test: normalised viability (% of control), CellTiter-Blue; higher = more viable cells (100 = DMSO, 0 = benzethonium chloride kill control); details: 1 nM; incubation time: 72 h
Some molecules, each annotated with its measured normalised viability.
Report as a plain number; the unit % is understood.

Example entries and their recorded answers appear below.
- molecule: "CC[C@]1(O)C[C@H]2CN(CCc3c([nH]c4ccccc34)[C@@](C(=O)OC)(c3cc4c(cc3OC)N(C=O)[C@H]3[C@@](O)(C(=O)OC)[C@H](OC(C)=O)[C@]5(CC)C=CCN6CC[C@]43[C@@H]65)C2)C1"
  normalised viability [%]: 88.9
- molecule: "CN(C)CCN1C(=O)c2cccc3cc(N)cc(c23)C1=O [Amonafide]"
  normalised viability [%]: 99.6
- molecule: "CC(C)(C#N)c1cc(Cn2cncn2)cc(C(C)(C)C#N)c1"
  normalised viability [%]: 94

Entry `O=C(O)CCCc1ccc(N(CCCl)CCCl)cc1` has what normalised viability?
102

---

system: HCC1937; assay: normalised response (% of control), CellTox Green; higher = less cell death (100 = DMSO, 0 = benzethonium chloride kill control); conditions: incubation time: 72 h
measured_endpoint: normalised response (%)
Report as a plain number; the unit % is understood.

- compound: "CO[C@H]1C[C@@H]2CC[C@@H](C)[C@@](O)(O2)C(=O)C(=O)N2CCCC[C@H]2C(=O)O[C@H]([C@H](C)C[C@@H]2CC[C@@H](OCCO)[C@H](OC)C2)CC(=O)[C@H](C)/C=C(\\C)[C@@H](O)[C@@H](OC)C(=O)[C@H](C)C[C@H](C)/C=C/C=C/C=C/1C [Everolimus] (1 nM)"
  measured_endpoint: "normalised response"
  observed: 99.9
- compound: "C[C@]12CC[C@H](O)CC1=CC[C@@H]1[C@@H]2CC[C@]2(C)C(c3cccnc3)=CC[C@@H]12 [Abiraterone] (50 nM)"
  measured_endpoint: "normalised response"
  observed: 116
- compound: "c1ccc([C@H]2CN3CCSC3=N2)cc1 [Levamisole] (1000 nM)"
  measured_endpoint: "normalised response"
  observed: 108

Entry CC(C)(C#N)c1cc(Cn2cncn2)cc(C(C)(C)C#N)c1 [Anastrozole] (100 nM) has what normalised response?
99.9

Entry CO[C@H]1C[C@@H]2CC[C@@H](C)[C@@](O)(O2)C(=O)C(=O)N2CCCC[C@H]2C(=O)O[C@H]([C@H](C)C[C@@H]2CC[C@@H](OCCO)[C@H](OC)C2)CC(=O)[C@H](C)/C=C(\C)[C@@H](O)[C@@H](OC)C(=O)[C@H](C)C[C@H](C)/C=C/C=C/C=C/1C [Everolimus] (100 nM) has what normalised response?
88.6

---

tested on: CAL-85-1; assay: normalised response (% of control), CellTiter-Glo; higher = more viable cells (100 = DMSO, 0 = benzethonium chloride kill control); conditions: incubation time: 72 h
measured_endpoint: normalised response (%)
Report as a plain number; the unit % is understood.

- compound: "C[C@]12CC[C@H](O)CC1=CC[C@@H]1[C@@H]2CC[C@]2(C)C(c3cccnc3)=CC[C@@H]12 [Abiraterone] (0.5 nM)"
  normalised response (%): 106
- compound: "CN1CCN(CCOc2cc(OC3CCOCC3)c3c(Nc4c(Cl)ccc5c4OCO5)ncnc3c2)CC1 [Saracatinib] (1 nM)"
  normalised response (%): 105
- compound: "CCCCCCCCc1ccc(CCC(N)(CO)CO)cc1 [Fingolimod] (10 nM)"
  normalised response (%): 111

Entry CN1CCN(CCOc2cc(OC3CCOCC3)c3c(Nc4c(Cl)ccc5c4OCO5)ncnc3c2)CC1 [Saracatinib] (10 nM) has what normalised response?
104

Entry COc1ccc(-c2ccc3c(N4CCOC[C@@H]4C)nc(N4CCOC[C@@H]4C)nc3n2)cc1CO [AZD8055] (1000 nM) has what normalised response?
25.3

Entry c1ccc([C@H]2CN3CCSC3=N2)cc1 [Levamisole] (10 nM) has what normalised response?
95.6

Entry CC(C)(C#N)c1cc(Cn2cncn2)cc(C(C)(C)C#N)c1 [Anastrozole] (1000 nM) has what normalised response?
103

Entry CC[C@]1(O)C[C@H]2CN(CCc3c([nH]c4ccccc34)[C@@](C(=O)OC)(c3cc4c(cc3OC)N(C=O)[C@H]3[C@@](O)(C(=O)OC)[C@H](OC(C)=O)[C@]5(CC)C=CCN6CC[C@]43[C@@H]65)C2)C1 [Vincristine] (0.1 nM) has what normalised response?
99.1

Entry COc1ccc(-c2ccc3c(N4CCOC[C@@H]4C)nc(N4CCOC[C@@H]4C)nc3n2)cc1CO [AZD8055] (1 nM) has what normalised response?
93.5

Entry NS(=O)(=O)OC[C@@H]1C[C@@H](n2ccc3c(N[C@H]4CCc5ccccc54)ncnc32)C[C@@H]1O [Pevonedistat] (1 nM) has what normalised response?
93.9

---

Some molecules, each annotated with its measured normalised response.
tested on: MDA-MB-231; test: normalised response (% of control), CellTox Green; higher = less cell death (100 = DMSO, 0 = benzethonium chloride kill control); conditions: incubation time: 72 h
Report as a plain number; the unit % is understood.

- molecule: "COc1ccccc1S(=O)(=O)Nc1ccc2c(c1)CN(C)C(=O)N2 [PFI-1] (100 nM)"
  normalised response / %: 123
- molecule: "O=C(O)CCCc1ccc(N(CCCl)CCCl)cc1 [Chlorambucil] (10000 nM)"
  normalised response / %: 104
- molecule: "COc1ccccc1S(=O)(=O)Nc1ccc2c(c1)CN(C)C(=O)N2 [PFI-1] (1000 nM)"
  normalised response / %: 105
- molecule: "C/C(=C\\c1csc(C)n1)[C@@H]1C[C@@H]2O[C@]2(C)CCC[C@H](C)[C@H](O)[C@@H](C)C(=O)C(C)(C)[C@@H](O)CC(=O)O1 [Patupilone] (10 nM)"
  normalised response / %: 92.9
- molecule: "Nc1ncnc2c1c(COc1cccc(Cl)c1)nn2C1CCOCC1 (100 nM)"
  normalised response / %: 119

Give the reported normalised response for CN(C)CCN1C(=O)c2cccc3cc(N)cc(c23)C1=O [Amonafide] (1000 nM) (system: MDA-MB-231).
122

Give the reported normalised response for Nc1ncnc2c1c(COc1cccc(Cl)c1)nn2C1CCOCC1 (10000 nM) (system: MDA-MB-231).
106

Give the reported normalised response for C[C@]12CC[C@H](O)CC1=CC[C@@H]1[C@@H]2CC[C@]2(C)C(c3cccnc3)=CC[C@@H]12 [Abiraterone] (50 nM) (system: MDA-MB-231).
58
